Sourced from paper PMC4336329

molecular target: human ether-à-go-go-related gene (hERG) potassium channel (human); assay: primary screen, population patch clamp on CHO cells stably expressing hERG; higher = less effect of the substance;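 also: peak tail current of the secondary pulse compared with the same well before compound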
Sequence (Q12809 whole entry, looked up): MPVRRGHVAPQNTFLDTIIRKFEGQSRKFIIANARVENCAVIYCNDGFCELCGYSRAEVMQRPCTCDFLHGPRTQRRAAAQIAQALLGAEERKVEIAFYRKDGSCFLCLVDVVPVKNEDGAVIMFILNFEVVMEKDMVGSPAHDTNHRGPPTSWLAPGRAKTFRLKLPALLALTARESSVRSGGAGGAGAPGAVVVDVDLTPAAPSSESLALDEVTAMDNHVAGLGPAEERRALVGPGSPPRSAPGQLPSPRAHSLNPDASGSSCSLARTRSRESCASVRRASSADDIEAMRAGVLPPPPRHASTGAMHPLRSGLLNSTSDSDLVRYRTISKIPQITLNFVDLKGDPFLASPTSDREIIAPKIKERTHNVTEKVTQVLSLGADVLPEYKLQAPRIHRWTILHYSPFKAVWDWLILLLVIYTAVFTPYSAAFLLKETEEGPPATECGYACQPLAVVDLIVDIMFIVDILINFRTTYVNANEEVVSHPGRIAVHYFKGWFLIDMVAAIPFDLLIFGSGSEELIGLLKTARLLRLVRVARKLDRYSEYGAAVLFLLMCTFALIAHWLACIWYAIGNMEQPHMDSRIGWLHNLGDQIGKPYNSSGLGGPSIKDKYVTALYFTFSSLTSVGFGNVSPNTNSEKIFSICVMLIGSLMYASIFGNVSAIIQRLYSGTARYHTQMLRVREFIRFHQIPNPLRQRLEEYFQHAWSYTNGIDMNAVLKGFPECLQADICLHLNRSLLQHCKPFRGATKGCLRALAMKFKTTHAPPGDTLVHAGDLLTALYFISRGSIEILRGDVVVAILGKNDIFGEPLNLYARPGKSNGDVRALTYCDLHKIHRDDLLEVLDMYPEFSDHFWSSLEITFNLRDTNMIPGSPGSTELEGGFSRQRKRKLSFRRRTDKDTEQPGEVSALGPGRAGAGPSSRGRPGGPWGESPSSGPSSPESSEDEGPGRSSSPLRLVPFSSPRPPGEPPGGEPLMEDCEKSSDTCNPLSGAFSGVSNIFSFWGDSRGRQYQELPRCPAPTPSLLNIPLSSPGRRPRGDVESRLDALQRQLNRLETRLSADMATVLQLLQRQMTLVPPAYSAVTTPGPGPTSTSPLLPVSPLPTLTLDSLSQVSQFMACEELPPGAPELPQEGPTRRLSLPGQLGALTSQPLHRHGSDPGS
In all, about 310,000 compounds went through this assay and about 14,000 (4.5%) showed an effect of 50% or more. The effect is printed as a negative number. The sample holds strong results, similar compounds and a random draw of the others, so the mix is not that of the screen.
MEASURED QUANTITY: hERG current change (%, negative = inhibition) at 10uM (%)
Please state the figure in %; there is no need to write the unit.

Sample answers from the record:
MOLECULE	TEST VALUE
CCOC(=O)N1CCC(N2CCN(Cc3ccc(F)c(F)c3)C(CCO)C2)CC1 (centres unmarked)	-44.7
Cc1ccc(CC(=O)Nc2cccc([N+](=O)[O-])c2)cc1	15.8
O=C(CCCSc1nc2ccccc2[nH]1)NCc1ccccc1Cl	-19.3

Consider Cc1ccc(S(=O)(=O)N2CC(=O)NC(=O)C2)cc1 . Its measured hERG current change (%, negative = inhibition) at 10uM is 6.07

The molecule listed as Cc1ccc2nc(SCC(=O)N3CCN(c4ccccc4)CC3)[nH]c2c1 has a reported hERG current change (%, negative = inhibition) at 10uM of 1.42
